test: Selectivity index, ratio of IC50 for human HepG2 cells to IC50 for CQ, MFQ-resistant Plasmodium falciparum TM91C235 clone Southeast asian isolate; type: toxicity, cell-based; conditions: read-out: Ratio IC50
QUANTITY NAME: selectivity ratio
// print number alone

Ask | Complete the entry with selectivity ratio for CC(=O)O[C@H]1C[C@H]2[C@@H]([C@H](OC(C)=O)C[C@@H]3C[C@H](O)CC[C@@]32C)[C@@H]2CC[C@H]([C@H](C)CCCNCCNc3ccnc4cc(Cl)ccc34)[C@@]12C
Reply | 407

Ask | Provide measured selectivity ratio value, entry: CC(=O)O[C@H]1C[C@H]2[C@@H]([C@H](OC(C)=O)C[C@@H]3C[C@H](N)CC[C@@]32C)[C@@H]2CC[C@H]([C@H](C)CCCN(C)CCCNc3ccnc4cc(Cl)ccc34)[C@@]12C
Reply | 50

Ask | Give a short answer stating reported selectivity ratio for CC(=O)O[C@H]1C[C@H]2[C@@H]([C@H](OC(C)=O)C[C@@H]3C[C@H](N(C)C)CC[C@@]32C)[C@@H]2CC[C@H]([C@H](C)CCCN(C)CCCNc3ccnc4cc(Cl)ccc34)[C@@]12C .
Reply | 71

Ask | Look up selectivity ratio of CC(=O)O[C@@H]1CC[C@@]2(C)[C@@H](C1)C[C@@H](OC(C)=O)[C@@H]1[C@@H]2C[C@H](OC(C)=O)[C@]2(C)[C@@H]([C@H](C)CCCNCCCCNc3ccnc4cc(Cl)ccc34)CC[C@@H]12 and report it.
Reply | 47

Ask | Note down selectivity ratio recorded for CC(=O)O[C@H]1C[C@H]2[C@@H]([C@H](OC(C)=O)C[C@@H]3C[C@H](NS(C)(=O)=O)CC[C@@]32C)[C@@H]2CC[C@H]([C@H](C)CCCN(C)CCCNc3ccnc4cc(Cl)ccc34)[C@@]12C
Reply | 139

Ask | Provide selectivity ratio value for the following compound: CC(=O)O[C@H]1C[C@H]2[C@@H]([C@H](OC(C)=O)C[C@@H]3C[C@H](NS(C)(=O)=O)CC[C@@]32C)[C@@H]2CC[C@H]([C@H](C)CCCN(C)CCNc3ccnc4cc(Cl)ccc34)[C@@]12C
Reply | 2200

Ask | Write down selectivity ratio measured for item CC(=O)O[C@H]1C[C@H]2[C@@H]([C@H](OC(C)=O)C[C@@H]3CC(NCCNc4ccnc5cc(Cl)ccc45)CC[C@@]32C)[C@@H]2CC[C@H]([C@H](C)CCCNCCNc3ccnc4cc(Cl)ccc34)[C@@]12C (some centres undefined)
Reply | 30

Ask | Consider the compound CC(=O)O[C@H]1C[C@H]2[C@@H]([C@H](OC(C)=O)C[C@@H]3C[C@H](N)CC[C@@]32C)[C@@H]2CC[C@H]([C@H](C)CCCNCCCNc3ccnc4cc(Cl)ccc34)[C@@]12C and give its recorded selectivity ratio.
Reply | 43

Ask | Determine its reported selectivity ratio: CC(=O)O[C@H]1C[C@H]2[C@@H]([C@H](OC(C)=O)C[C@@H]3C[C@H](NS(C)(=O)=O)CC[C@@]32C)[C@@H]2CC[C@H]([C@H](C)CCCNCCNc3ccnc4cc(Cl)ccc34)[C@@]12C
Reply | 222

Taken from ChEMBL document CHEMBL3259704.
